Target: ERK1 (Homo sapiens (Human))
Sequence (P27361 whole entry): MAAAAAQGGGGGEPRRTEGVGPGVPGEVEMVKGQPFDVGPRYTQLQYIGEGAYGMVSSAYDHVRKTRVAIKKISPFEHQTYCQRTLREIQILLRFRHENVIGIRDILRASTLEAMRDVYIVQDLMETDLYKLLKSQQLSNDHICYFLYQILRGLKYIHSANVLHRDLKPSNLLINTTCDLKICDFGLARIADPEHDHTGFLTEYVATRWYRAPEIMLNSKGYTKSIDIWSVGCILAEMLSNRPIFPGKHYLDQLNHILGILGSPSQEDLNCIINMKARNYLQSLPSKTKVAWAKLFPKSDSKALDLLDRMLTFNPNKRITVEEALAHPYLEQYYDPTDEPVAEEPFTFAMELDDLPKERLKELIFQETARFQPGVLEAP
Assay: KinaseProfiler off-target kinase profiling
Assay type: biochemical
Conditions: 10 μM, ATP near Km
Reported Endpoint: Avg. POC (POC)

Molecule | Avg. POC [POC]
Cc1c(-c2cnn(C)c2)nn(-c2ccccc2)c1NC(=O)N[C@H]1CCCc2ccccc21 | 120.5
Cc1c(-c2ccc(=O)n(C)c2)nn(-c2ccccc2)c1NC(=O)NC1CN(CC(F)(F)F)Cc2ccccc21 (stereo not shown) | 109.5
Cc1c(-c2cnn(C)c2)nn(-c2ccccc2)c1NC(=O)NC1CCOc2cc(F)ccc21 (stereo not shown) | 105
COCc1ccc2c(c1)C(NC(=O)Nc1c(C)c(-c3cnn(C)c3)nn1-c1ccccc1)COC2 (stereo not shown) | 107
